The measurements presented in this section are drawn from patent US20150218281A1.

Reported Binding Level sample 2 - sample 1 (RU) values for a set of binders
experimental-system: T1, recombinant human OX40L (extracellular domain, R&D Systems) (human, UniProt P23510 51-183)
T1 construct: also called hOX40L; rec. hOX40L
T1 sequence: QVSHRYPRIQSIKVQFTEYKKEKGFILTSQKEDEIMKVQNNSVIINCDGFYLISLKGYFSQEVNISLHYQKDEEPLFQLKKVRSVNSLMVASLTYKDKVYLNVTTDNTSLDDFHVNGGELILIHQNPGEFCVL
assay-summary: SPR, second injection after competitor OX40L01E10
Please reply with the bare figure in RU and do not write the unit itself.

Sample records with Binding Level sample 2 - sample 1 (RU):
binder="OX40L18E09 (VHH, monovalent Nanobody from E. coli; not shown: C-terminal c-myc and His6 tag) VHH: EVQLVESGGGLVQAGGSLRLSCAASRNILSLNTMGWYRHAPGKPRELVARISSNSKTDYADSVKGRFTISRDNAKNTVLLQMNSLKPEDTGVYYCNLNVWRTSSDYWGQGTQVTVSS" property="Binding Level sample 2 - sample 1 (RU)" readout_number=21
binder="OX40L01B11 (VHH, monovalent Nanobody from E. coli; not shown: C-terminal c-myc and His6 tag) VHH: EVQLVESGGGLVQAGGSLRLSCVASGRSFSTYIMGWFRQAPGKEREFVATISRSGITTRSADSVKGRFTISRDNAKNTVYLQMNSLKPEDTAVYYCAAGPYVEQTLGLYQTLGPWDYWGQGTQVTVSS" property="Binding Level sample 2 - sample 1 (RU)" readout_number=76

Give the reported value of Binding Level sample 2 - sample 1 (RU) for this record: OX40L15B07 (VHH, monovalent Nanobody from E. coli; not shown: C-terminal c-myc and His6 tag) VHH: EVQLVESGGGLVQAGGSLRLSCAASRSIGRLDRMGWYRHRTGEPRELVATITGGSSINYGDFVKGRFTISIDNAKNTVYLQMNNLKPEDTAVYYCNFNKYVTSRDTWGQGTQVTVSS 17
